Recorded remaining activity at 10 µM by entry
Target: NPP6 (Homo sapiens, UniProt Q6UWR7)
Sequence (Q6UWR7 23-419): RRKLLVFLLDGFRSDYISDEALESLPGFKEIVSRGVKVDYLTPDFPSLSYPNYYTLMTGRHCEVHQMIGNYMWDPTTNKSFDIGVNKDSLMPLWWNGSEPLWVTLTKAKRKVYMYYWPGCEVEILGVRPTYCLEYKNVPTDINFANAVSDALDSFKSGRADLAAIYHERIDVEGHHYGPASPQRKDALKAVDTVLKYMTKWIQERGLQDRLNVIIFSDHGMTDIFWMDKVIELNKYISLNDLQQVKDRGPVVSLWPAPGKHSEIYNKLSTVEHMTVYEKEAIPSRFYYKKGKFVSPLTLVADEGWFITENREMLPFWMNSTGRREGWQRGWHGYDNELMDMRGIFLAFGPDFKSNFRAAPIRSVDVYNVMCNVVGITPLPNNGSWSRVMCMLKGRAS
Experiment: NPP-6 inhibition assay (pNPPC substrate)
Assay type: biochemical
Conditions: 10 μM compound; 8.3 nM enzyme; 10 μM pNPPC; read-out: NPP6 Activity, % control (10 μM)
# number only, unit % dropped from output

Worked cases, remaining activity at 10 µM given:
CCCCCCCCCCCCCCCc1ccc(C(F)P(=O)(O)O)cc1 (stereo not shown) | 101
CCCCCCCCCCCCC/C=C/c1ccc(CP(=O)(O)O)cc1 | 104
CCCCCCCCCCCCCCCc1ccc(C(Br)P(=O)(O)O)cc1 (stereo not shown) | 99.3
CCCCCCCCCCCCCCCc1ccc(C(O)P(=O)(O)O)cc1 (stereo not shown) | 99.6
CCCCCCCCCCCCCc1ccc2cc(CP(=O)(O)O)ccc2c1 [Compound 34b] | 100

Q. Notebook: pull reported remaining activity at 10 µM for NPP6 (Homo sapiens, UniProt Q6UWR7), entry CCCCCCCCCCCCCCCc1ccc(COP(=O)(O)O)cc1 [Compound 45, 4-pentadecylbenzyl dihydrogen phosphate]
A. 101

Q. API: value(readout=remaining activity at 10 µM, system=NPP6 (Homo sapiens, UniProt Q6UWR7)) for record CCCCCCCCCCCCc1ccc2cc(CP(=O)(O)O)ccc2c1 [Compound 34a]
A. 101
